Molecular target: human kinase Mps-1 (Homo sapiens)
Construct: N-terminally GST-tagged human full length recombinant Mps-1 kinase; GST (N)
Sequence (P33981 1-857): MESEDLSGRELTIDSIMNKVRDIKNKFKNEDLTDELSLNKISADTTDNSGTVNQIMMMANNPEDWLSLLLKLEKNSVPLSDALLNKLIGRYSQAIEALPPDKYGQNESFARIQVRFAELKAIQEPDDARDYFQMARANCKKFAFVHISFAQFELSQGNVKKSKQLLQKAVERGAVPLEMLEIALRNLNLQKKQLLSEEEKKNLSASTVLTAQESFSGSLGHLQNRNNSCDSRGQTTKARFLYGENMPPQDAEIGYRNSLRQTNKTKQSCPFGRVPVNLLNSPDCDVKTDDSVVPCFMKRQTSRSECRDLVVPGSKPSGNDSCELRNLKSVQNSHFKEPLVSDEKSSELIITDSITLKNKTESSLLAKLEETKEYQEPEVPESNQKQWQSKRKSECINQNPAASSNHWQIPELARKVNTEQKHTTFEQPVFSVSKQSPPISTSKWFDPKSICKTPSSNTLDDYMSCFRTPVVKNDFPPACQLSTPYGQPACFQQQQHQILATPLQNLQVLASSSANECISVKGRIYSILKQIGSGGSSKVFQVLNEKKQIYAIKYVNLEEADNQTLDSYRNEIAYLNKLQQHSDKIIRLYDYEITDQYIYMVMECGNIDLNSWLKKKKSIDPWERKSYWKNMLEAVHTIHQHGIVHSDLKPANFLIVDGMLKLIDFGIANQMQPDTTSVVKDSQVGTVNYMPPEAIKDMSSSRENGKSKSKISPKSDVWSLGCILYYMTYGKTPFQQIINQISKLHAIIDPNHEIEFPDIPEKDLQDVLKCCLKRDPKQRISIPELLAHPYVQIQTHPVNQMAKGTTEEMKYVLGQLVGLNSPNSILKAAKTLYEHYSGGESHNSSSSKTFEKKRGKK
Assay: Mps-1 kinase assay (TR-FRET)
Conditions: N-terminally GST-tagged human full length recombinant Mps-1; 10 μM ATP; 1 μM peptide substrate; 60 min at 22° C.
Method: The human kinase Mps-1 phosphorylates a biotinylated substrate peptide. Detection of the phosphorylated product is achieved by time-resolved fluorescence resonance energy transfer (TR-FRET) from Europium-labelled anti-phospho-Serine/Threonine antibody as donor to streptavidin labelled with cross-linked allophycocyanin (SA-XLent) as acceptor. Compounds are tested for their inhibition of the kinase activity. […]
Test Readout: IC50 (nM)

Sample answers from the record:
[[record]]
compound = "Cc1cc(-c2cnc3c(NCCC(F)(F)F)cc(Oc4cccc(F)c4)cn23)ccc1C(=O)NC1(CO)CC1"
reported_value = 7.3

[[record]]
compound = "COCCNc1cc(Oc2cc(F)ccc2C)cn2c(-c3ccc(C(=O)NC4CC4)c(C)c3)cnc12"
reported_value = 77.8

[[record]]
compound = "Cc1cc(-c2cnc3c(NCCC(F)(F)F)cc(Oc4cccc(F)c4)cn23)ccc1C(=O)NC1(C)CC1"
reported_value = 3.8

[[record]]
compound = "CNC(=O)c1ccc(-c2cnc3c(NCCC(F)(F)F)cc(Oc4cccc(F)c4)cn23)cc1C"
reported_value = 3.4

[[record]]
compound = "CNC(=O)c1ccc(-c2cnc3c(NCCC(F)(F)F)cc(Oc4cc(F)ccc4C)cn23)cc1C"
reported_value = 2.9

[[record]]
compound = "CNC(=O)c1ccc(-c2cc(NCCC(F)(F)F)c3ncc(-c4ccc(C(=O)NC5CC5)c(C)c4)n3c2)cc1C"
reported_value = 0.5

[[record]]
compound = "CCNC(=O)c1ccc(-c2cnc3c(NCCC(F)(F)F)cc(Oc4cccc(OC)c4)cn23)cc1C"
reported_value = 7.8

[[record]]
compound = "Cc1cc(-c2cnc3c(NCCC(F)(F)F)cc(Oc4cccc(F)c4)cn23)ccc1C(=O)NC1(C#N)CC1"
reported_value = 11.1


[a] CNC(=O)c1ccc(-c2cnc3c(NCCC(F)(F)F)cc(CCCO)cn23)cc1C
[b] Cc1cc(-c2cnc3c(NCCC(F)(F)F)cc(Oc4cncc(F)c4)cn23)ccc1C(=O)NC1CC1
[c] COc1ccccc1-c1cc(NCCC(F)(F)F)c2ncc(-c3ccc(C(=O)NC4(C)CC4)c(C)c3)n2c1
Sort by IC50, descending. Form field (ranking): labels in requested order.
a, c, b
